# credit: paper PMC8748714

The following binders are listed with their measured pIC50 values.
Molecular target: T1, GLP-1R K202A (Homo sapiens)
T1 chain: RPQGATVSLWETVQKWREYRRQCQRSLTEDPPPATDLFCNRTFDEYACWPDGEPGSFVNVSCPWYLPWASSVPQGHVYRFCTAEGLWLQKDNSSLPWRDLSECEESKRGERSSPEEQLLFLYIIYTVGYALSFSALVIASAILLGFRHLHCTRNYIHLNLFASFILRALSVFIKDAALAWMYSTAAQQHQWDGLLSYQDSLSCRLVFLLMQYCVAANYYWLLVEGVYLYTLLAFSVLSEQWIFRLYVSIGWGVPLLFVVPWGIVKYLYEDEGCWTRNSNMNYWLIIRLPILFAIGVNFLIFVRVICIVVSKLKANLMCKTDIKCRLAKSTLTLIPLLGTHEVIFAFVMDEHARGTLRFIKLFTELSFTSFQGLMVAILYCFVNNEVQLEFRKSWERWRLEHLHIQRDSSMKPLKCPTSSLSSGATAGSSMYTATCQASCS
No end group written: not given here.
Expect pIC50 as a plain number equal to -log10 of the molar concentration.

What does the record list as pIC50 for HAEGTFTSDVSSYLEGQAAKEFIAWLVKGR (not fully specified (C-terminus)) [glucagon-like peptide-1] ?
8.22

Attention now turns to another entry.
What does the record list as pIC50 for HSQGTFTSDYSKYLDSRRAQDFVQWLMNTKRNRNNIA [oxyntomodulin] ?
6.72
